Listed here are molecules together with their documented inhibition at 100 µM.
Test system: MCF7 cells
Assay: Whole cell cytotoxicity assay: Sulforhodamine B
Format: cell-based, Human
Settings: Homo sapiens; compound concentration 100 μM; MCF7 cell growth, 48 hours with drug, SRB staining
Experimental: The following procedure can be found on the Developmental Therapeutics Program NCI/NIH web site at http://dtp.nci.nih.gov/brancehes/btb/ivclsp.html. 1. Human tumor cell lines of HT29, A549 and MCF7 are grown in DMEM containing 10% fetal bovine serum and 2 mM L-glutamine. Cells are plated in a 96 well plate at a density of 5000 cells per well in 100 uL of growth medium and incubated at 37° C., 5% CO2, for 24 hours prior to the addition of experimental compounds. 2. […] 8. Absorbance is read at 570 nm.
quantity: inhibition at 100 µM (%)

substancesmiles=COCCN(C)Cc1cccc(-c2ccc(S(=O)(=O)N3CCN(c4ncc(C(=O)NO)s4)CC3)cc2)c1 quantity="inhibition at 100 µM" reportedresult=97
substancesmiles=O=C(NO)c1cnc(N2CCN(S(=O)(=O)c3ccc(N4CCCC4)c(F)c3)CC2)s1 quantity="inhibition at 100 µM" reportedresult=96
substancesmiles=CNCc1cccc(-c2ccc(S(=O)(=O)N3CCN(c4ncc(C(=O)NO)s4)CC3)cc2)c1 quantity="inhibition at 100 µM" reportedresult=86
substancesmiles=O=C(NO)c1cnc(N2CCN(S(=O)(=O)c3ccc(N4CCOCC4)cc3)CC2)s1 quantity="inhibition at 100 µM" reportedresult=91
substancesmiles=COc1ccc(OC)c(S(=O)(=O)N2CCN(c3ncc(C(=O)NO)s3)CC2)c1 quantity="inhibition at 100 µM" reportedresult=98
